These measurements were taken from the domain aggregation screens of Martell et al. (2025).

Assay: soluble fraction after stress (log2 fold change); higher = more stays soluble; pooled small domains, quantitative proteomics
Details: stress: 50 degC
Result type: soluble fraction (log2)

[[record]]
entry_sequence = "HMAPPPLAGAREALREQIRRGSLSARRGFDAYADALGLPAGTRGAHPIFAALQRLDYPQALRLLDQEPT"
value = 0.0894

[[record]]
entry_sequence = "HMDAEETLGARLRRLRQARGLSLAGLAQAAGLSKPSIWAWENGTTAPRRTSLLALARALDVPEQQLTGV"
value = -0.358

[[record]]
entry_sequence = "HMDLQAAWLQTVRHLLAHTEDVGDRFAEEARRIHYGEEPHRGIRGQATPEERLALREEGIETMSIPV"
value = -0.631

[[record]]
entry_sequence = "HMSEQMQVGELVFQLHRKAIKNLHINVLPPDGFVRVSAPQAMTETAIRTAVISRLPWIRRQQQAFAAQ"
value = -2.12

